biological target: HLA-A*03:01; assay: IEDB peptide-MHC binding, purified MHC/direct/fluorescence; filed as Kd, often an IC50 or EC50 that approximates it; bounds were set here for any values at or beyond the usual limits of such assays; settings: source organism: Influenza A virus (A/Puerto Rico/8/34/Mount Sinai(H1N1))
observed.property: pKd
Answers are plain numbers, as −log10 of the molar value.

q: Return the recorded pKd value; entry: "ATTHSWIPK"
a: 6.08

###

target: HLA-A*30:02; test: IEDB peptide-MHC binding, purified MHC/competitive/radioactivity; filed as Kd, often an IC50 or EC50 that approximates it; bounds were set here for any values at or beyond the usual limits of such assays; conditions: source organism: Mammarenavirus guanaritoense
observed.property: Kd (µM)
Give bare numbers, in µM.

q: Input "GHHTNFESF" , output reported Kd.
a: 3.83

###

target: HLA-B*08:01; assay: IEDB peptide-MHC binding, purified MHC/direct/fluorescence; filed as Kd, often an IC50 or EC50 that approximates it; bounds were set here for any values at or beyond the usual limits of such assays; details: source organism: Pseudomonas savastanoi
pKd: −log10 of the molar value.
observed.property: pKd

q: Give a short answer stating reported pKd for "TYYPQVVLG" .
a: ≤ 4.70

###

biological target: HLA-A*03:01; assay: IEDB peptide-MHC binding, purified MHC/direct/fluorescence; filed as Kd, often an IC50 or EC50 that approximates it; bounds were set here for any values at or beyond the usual limits of such assays; conditions: source organism: Zaire ebolavirus
observed.property: Kd

Here are 2 sequences together with their reported answers.
q: Please supply the value of reported Kd for the item "KEGKLQCRI"
a: ≥ 20 µM

q: Quote Kd reported for "RDRFKRTSF" please.
a: ≥ 20 µM

Consider the additional sequence presented here.
q: Name the recorded Kd of the sequence listed here: "HPLARTAKV"
a: ≥ 20 µM

###

molecular target: HLA-B*27:05; experiment: IEDB peptide-MHC binding, purified MHC/direct/fluorescence; filed as Kd, often an IC50 or EC50 that approximates it; bounds were set here for any values at or beyond the usual limits of such assays; settings: source organism: SARS-CoV1
observed.property: pKd
Numbers only, as −log10 of the molar value.

q: For the sequence "FRYMNSQGL" , give its reported pKd.
a: 7.29

Now examine the next entry.
q: # return recorded pKd for input "KMKELSPRW"
a: 5.28

###

target: HLA-B*51:01; test: IEDB peptide-MHC binding, purified MHC/direct/fluorescence; filed as Kd, often an IC50 or EC50 that approximates it; bounds were set here for any values at or beyond the usual limits of such assays; conditions: source organism: Brucella suis 1330
observed.property: Kd

q: Write down Kd measured for item "MRIGSMATL"
a: ≥ 20 µM

###

target: HLA-A*30:01; experiment: IEDB peptide-MHC binding, purified MHC/competitive/fluorescence; filed as Kd, often an IC50 or EC50 that approximates it; bounds were set here for any values at or beyond the usual limits of such assays; details: source organism: Vaccinia virus WR
observed.property: Kd

q: Give HLA-A*30:01 Kd for the following sequence: "ITMVNSLTY"
a: ≥ 20 µM

###

biological target: HLA-B*15:09; assay: IEDB peptide-MHC binding, purified MHC/competitive/fluorescence; filed as Kd, often an IC50 or EC50 that approximates it; bounds were set here for any values at or beyond the usual limits of such assays; settings: source organism: Bacillus anthracis str. A0488
observed.property: pKd
Answers are plain numbers, as −log10 of the molar value.

q: Specify measured pKd for "SQMPPQKIM" .
a: 6.55
